# Test system: K562
# ASSAY EXPLANATION: cell viability relative to vehicle control; higher = less cytotoxic;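 further: after 48 h exposure read by CellTiter-Glo luminescence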
# MEASUREMENT PARAMETERS: 10 µM; SRSF2 genotype: SRSF2 wt/wt
Structures can show the parent of a compound that is named as a salt.
Label key: True means cell viability under 90%; False means cell viability of 90% or more.

Consider the following illustrative entries.
INSERT INTO measurements (molecule, label_class) VALUES
  ('CCn1c(=O)c2c(nc(/C=C/c3ccc(OC)c(OC)c3)n2C)n(CC)c1=O', 'True'),
  ('CC1=CC(=O)CC(C)(C)C1=O', 'False'),
  ('CC(C)=CCC[C@](C)(O[C@@H]1O[C@H](CO)[C@@H](O)[C@H](O)[C@H]1O)[C@H]1CC[C@]2(C)[C@@H]1[C@H](O)C[C@@H]1[C@@]3(C)CC[C@H](O)C(C)(C)[C@@H]3[C@@H](O[C@@H]3O[C@H](CO)[C@@H](O)[C@H](O)[C@H]3O[C@@H]3O[C@@H](C)[C@H](O)[C@@H](O)[C@H]3O)C[C@]12C [Ginsenoside Re]', 'False'),
  ('Cc1nnc(C(=O)NC(C)(C)c2nc(C(=O)NCc3ccc(F)cc3)c(O)c(=O)n2C)o1', 'False'),
  ('CO/N=C(\C(=O)N[C@@H]1C(=O)N2C(C(=O)OCOC(=O)C(C)(C)C)=C(/C=C\c3scnc3C)CS[C@H]12)c1csc(N)n1', 'False');

# input Consider `CO[C@@]12[C@H](COC(N)=O)C3=C(C(=O)C(C)=C(N)C3=O)N1C[C@@H]1N[C@@H]12` . Does its cell viability lie strictly below 90%?
# output True

# input Consider `CNC(=O)c1cc(Oc2ccc(NC(=O)Nc3ccc(Cl)c(C(F)(F)F)c3)c(F)c2)ccn1` . Does its cell viability lie strictly below 90%?
# output True

# input Consider CC(C)OC(=O)C(C(=O)OC(C)C)=C1SC=CS1 [Malotilate] . Does its cell viability lie strictly below 90%?
# output False

# input Consider O=c1ccc2ccc(O)cc2[nH]1 [7-Hydroxycarbostyril] . Does its cell viability lie strictly below 90%?
# output False

# input Consider O=CO [Formate] . Does its cell viability lie strictly below 90%?
# output False

# input Consider CC1OC(OC2C(CO)OC(OCC3OC(OC(=O)C45CCC(C)(C)CC4C4=CCC6C7(C)CCC(OC8OCC(O)C(O)C8OC8OC(C)C(O)C(O)C8O)C(C)(CO)C7CCC6(C)C4(C)CC5)C(O)C(O)C3O)C(O)C2O)C(O)C(O)C1O (centres undefined) [Hederacoside C] . Does its cell viability lie strictly below 90%?
# output False

# input Consider CNC(=O)c1cc(Oc2ccc(NC(=O)Nc3ccc(Cl)c(C(F)(F)F)c3)cc2)ccn1 [Sorafenib Tosylate] . Does its cell viability lie strictly below 90%?
# output True

----------
# Test system: MARIMO
# ASSAY EXPLANATION: cell viability relative to vehicle control; higher = less cytotoxic
# MEASUREMENT PARAMETERS: 10 µM; SRSF2 genotype: SRSF2 P95H/wt
Structures can show the parent of a compound that is named as a salt.
METRIC NAME: cell viability

Solved entries (count: 5):
INSERT INTO results (molecule, target, test_value) VALUES
  ('Nc1cccc2c1C(=O)N(C1CCC(=O)NC1=O)C2=O (stereo not drawn) [Pomalidomide]', 'MARIMO', '87.4%'),
  ('O=S(=O)(c1cccc2cnccc12)N1CCCNCC1 [Fasudil HCl (HA-1077)]', 'MARIMO', '81.6%'),
  ('CNC(=O)c1ccc(N2C(=S)N(c3cnc(C#N)c(C(F)(F)F)c3)C(=O)C23CCC3)cc1F', 'MARIMO', '104%'),
  ('CCC(C)SSc1ncc[nH]1 (stereo not drawn)', 'MARIMO', '6.03%'),
  ('CCN(C)S(=O)(=O)Nc1ccc(F)c(C(=O)c2c[nH]c3ncc(-c4cnc(C5CC5)nc4)cc23)c1F', 'MARIMO', '83.6%');

# input Tell us which cell viability value is on record for CC1(C)C2CCC1(C)C(O)C2 (single isomer, unassigned; (-)) [(-)-Borneol]
# output 100%

# input Tell us which cell viability value is on record for `CC1(COc2ccc3c(c2)ncn3-c2ccc3cccc(N4CCC(N)CC4)c3n2)COC1`
# output 5.64%

# input Tell us which cell viability value is on record for C[C@H]1[C@H](C)CC[C@]2(C(=O)O)CC[C@]3(C)C(=CC[C@@H]4[C@@]5(C)CC[C@H](O)C(C)(C)[C@@H]5CC[C@]43C)[C@H]12 [Ursolic acid (Malol)]
# output 87.2%

----------
Overview of recorded cell viability for various compounds
# System: MOLM14
# ASSAY EXPLANATION: cell viability relative to vehicle control; higher = less cytotoxic
# MEASUREMENT PARAMETERS: 10 µM; SRSF2 genotype: SRSF2 P95H/wt
Give the value, in units of %, as a plain number.

Solved entries (count: 5):
INSERT INTO measurements (compound, test_value) VALUES
  ('O.O=C([O-])c1ncccc1O.O=C([O-])c1ncccc1[O-].[H+].[O]=[V][OH] [VO-Ohpic trihydrate]', 122),
  ('Cc1ccc(-c2csc(NC(=O)c3ccccc3)n2)c(C)c1', 94.1),
  ('COc1cc2c(cc1OC)CN(C(=O)/C=C/c1c(-c3ccccc3)n(C)c3ncccc13)CC2', 47.7),
  ('CC(C)(C)OC(=O)N[C@@H]1CCCC[C@H]1N [(1R,2R)-trans-N-Boc-1,2-cyclohexanediamine]', 101),
  ('Cc1cnc(-c2cc(N3CCN(C(=O)CCS(C)(=O)=O)CC3)ncc2Cl)c(C)c1', 100);

# input Tell us which cell viability value is on record for CO[C@@H]1[C@@H](OC(N)=O)[C@@H](O)[C@H](Oc2ccc3c(O)c(NC(=O)c4ccc(O)c(CC=C(C)C)c4)c(=O)oc3c2C)OC1(C)C [Novobiocin sodium (Albamycin)]
# output 93.6

----------
# Tested on: K562
# ASSAY EXPLANATION: cell viability relative to vehicle control; higher = less cytotoxic
# MEASUREMENT PARAMETERS: 10 µM; SRSF2 genotype: SRSF2 wt/wt
METRIC NAME: cell viability (%)
Give the value, in units of %, as a plain number.

Solved entries (count: 2):
INSERT INTO assay_data (molecule, test_value) VALUES
  ('CCCCCCCCOC(=O)c1cc(O)c(O)c(O)c1 [Octyl gallate]', 58.7),
  ('OCc1cc(C(O)CNCCCCCCOCCCCc2ccccc2)ccc1O (stereo not drawn) [Salmeterol]', 88.4);

Attention now turns to another entry.
# input // output cell viability; input CC[C@H]1OC(=O)[C@H](C)[C@@H](O[C@H]2C[C@@](C)(OC)[C@@H](O)[C@H](C)O2)[C@H](C)[C@@H](O[C@@H]2O[C@H](C)C[C@H](N(C)C)[C@H]2O)[C@](C)(O)C[C@@H](C)C(=O)[C@H](C)[C@@H](O)[C@]1(C)O [Erythromycin thiocyanate] ; system K562
# output 94.6

----------
# Test system: K562
# ASSAY EXPLANATION: cell viability relative to vehicle control; higher = less cytotoxic
# MEASUREMENT PARAMETERS: 10 µM; SRSF2 genotype: SRSF2 wt/wt
Where a name gives a salt, the structure may show the parent alone.
Label key: Condition met means cell viability under 90%; Condition not met means cell viability of 90% or more.

Consider the following illustrative entries.
INSERT INTO results (compound, label_class) VALUES
  ('C[C@H](CC(=O)C[C@@H](C)[C@H]1C[C@H](O)[C@@]2(C)C3=C(C(=O)C[C@]12C)[C@@]1(C)CCC(=O)C(C)(C)[C@@H]1C[C@@H]3O)C(=O)O [Ganoderic acid A]', 'Condition not met'),
  ('CC(C)C[C@H](NC(=O)CNC(=O)c1cc(Cl)ccc1Cl)B1OC(=O)CC(CC(=O)O)(C(=O)O)O1 (stereo partly specified) [Ixazomib Citrate (MLN9708)]', 'Condition met');

# input Consider `CN(C)c1cccc(-c2c3c(=O)n(-c4ccccc4Cl)[nH]c3cc(=O)n2C)c1` . Does its cell viability lie strictly below 90%?
# output Condition not met

# input Consider O=c1cc(-c2ccccc2)oc2cc(O[C@@H]3O[C@H](CO[C@@H]4O[C@H](CO)[C@@H](O)[C@H](O)[C@H]4O)[C@@H](O)[C@H](O)[C@H]3O)c(O)c(O)c12 [Oroxin B] . Does its cell viability lie strictly below 90%?
# output Condition not met

# input Consider Cc1cc(C(O)=C2C(=O)C(=O)N(CCCN3CCOCC3)C2c2ccncc2)ccc1OCc1ccccc1 (stereo unspecified) . Does its cell viability lie strictly below 90%?
# output Condition not met

# input Consider Cc1cc(Cn2cnc3c2CC(C(=O)O)N(C(=O)C(c2ccccc2)c2ccccc2)C3)ccc1N(C)C (stereo unspecified) . Does its cell viability lie strictly below 90%?
# output Condition not met
